ASSAY_SUMMARY: chemical genetic growth profiling, strain panel (AID 1159580);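 further: tested at 20 µM; growth read once vehicle control cultures reached saturation at 30 °C; 1 = growth at the plate median or of vehicle wells; lower values mean less growth of the strain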
MEASUREMENT_CONTEXT: S. cerevisiae deletion strains, growth OD, locus YLR384C, strain iki3
Among all 5,500 compounds or so, about 2,000 (36%) were called active. Roughly 18% stayed inconclusive and do not appear here. No stated cut-off is given here; in the data, active means normalized growth mostly below about 0.91 (no sharp cut-off); inconclusive means no clear call, values can overlap the other calls; inactive means mostly above about 0.92. The list shows a part of the results.
Classes used: 1 (yes) for active, 0 (no) for inactive

# MOLECULE, CLASS
data = [
    ("CC(=O)NS(=O)(=O)c1ccc(NC(=O)c2ccccc2C(=O)O)cc1", "0 (no)"),
    ("C#CC1(O)CCC2C3CCC4=CC(=O)CCC4(C)C3CCC21C (stereo unspecified)", "0 (no)"),
    ("COc1cnc(NS(=O)(=O)c2ccc(N)cc2)nc1", "0 (no)"),
    ("C#C[C@]1(O)CCC2C3CCC4=Cc5oncc5C[C@]4(C)C3CC[C@@]21C (stereo partly specified)", "0 (no)"),
    ("C[C@]12CCC(=O)C=C1CCC1C2C(=O)C[C@@]2(C)C1CC[C@]2(O)C(=O)CO (stereo partly specified)", "0 (no)"),
    ("c1ccc([C@H]2CN3CCSC3=N2)cc1", "0 (no)"),
    ("O=c1oc2c(O)c(O)cc3c(=O)oc4c(O)c(O)cc1c4c23", "1 (yes)"),
    ("C=C(C)[C@H]1Cc2c(ccc3c2O[C@@H]2COc4cc(OC)c(OC)cc4[C@@H]2C3=O)O1", "0 (no)"),
    ("Cc1c(NC(=O)c2cccnc2)c(=O)n(-c2ccccc2)n1C", "0 (no)"),
    ("CC1(C)C=Cc2cc3ccc(=O)oc3cc2O1", "0 (no)"),
    ("CNC(Cc1c[nH]c2ccccc12)C(=O)O (stereo unspecified)", "0 (no)"),
]
